# TARGET_UNDER_TEST: IGF1R (human, UniProt P08069)
# PROCEDURE_DETAILS: ELISA
pEC50: −log10 of the molar value.

BINDER: AB011 (antibody, V domains shown) VH: EVQLLESGGGLVQPGGSLRLSCTASGFTFSSYAMNWVRQAPGKGLEWVSAISGSGGTTFYADSVKGRFTISRDNSRTTLYLQMNSLRAEDTAVYYCAKDLGWSDSYYYYYGMDVWGQGTTVTVSS VL: DIQMTQFPSSLSASVGDRVTITCRASQGIRNDLGWYQQKPGKAPKRLIYAASRLHRGVPSRFSGSGSGTEFTLTISSLQPEDFATYYCLQHNSYPCSFGQGTKLEIKR
pEC50: 9.52
//
BINDER: DVD032 IGF1R arm (antibody, V domains shown, DVD-Ig outer) VH: EVQLLESGGGLVQPGGSLRLSCTASGFTFSSYAMNWVRQAPGKGLEWVSAISGSGGTTFYADSVKGRFTISRDNSRTTLYLQMNSLRAEDTAVYYCAKDLGWSDSYYYYYGMDVWGQGTTVTVSS VL: DIQMTQFPSSLSASVGDRVTITCRASQGIRNDLGWYQQKPGKAPKRLIYAASRLHRGVPSRFSGSGSGTEFTLTISSLQPEDFATYYCLQHNSYPCSFGQGTKLEIKR
pEC50: 9.70
//
BINDER: DVD022 IGF1R arm (antibody, V domains shown, DVD-Ig outer) VH: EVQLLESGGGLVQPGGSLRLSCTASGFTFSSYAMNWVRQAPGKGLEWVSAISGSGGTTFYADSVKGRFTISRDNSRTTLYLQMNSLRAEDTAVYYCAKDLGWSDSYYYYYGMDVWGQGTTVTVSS VL: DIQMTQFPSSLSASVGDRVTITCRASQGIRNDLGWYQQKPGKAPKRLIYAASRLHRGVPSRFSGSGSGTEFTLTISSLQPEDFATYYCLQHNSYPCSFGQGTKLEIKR
pEC50: 9.52
//
BINDER: DVD031 IGF1R arm (antibody, V domains shown, DVD-Ig inner) VH: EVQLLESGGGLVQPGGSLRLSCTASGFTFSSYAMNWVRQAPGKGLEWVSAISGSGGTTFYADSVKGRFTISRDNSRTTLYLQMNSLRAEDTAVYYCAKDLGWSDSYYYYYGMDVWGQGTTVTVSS VL: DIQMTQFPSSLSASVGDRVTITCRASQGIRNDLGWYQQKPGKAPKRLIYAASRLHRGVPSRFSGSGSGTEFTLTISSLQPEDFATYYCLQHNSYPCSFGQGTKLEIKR
pEC50: 6.77

Just for reference, patent US9029508 is where these values come from.
